protocolDescription: in vivo
Design: species or system mice
conditionLabel: male, NU/J athymic nude, mouse, 3.81 MBq, total radioactivity, Biodistribution, Brain
Peptide text beside a SMILES is read from it. * marks the point of attachment. DOTA = O=C(O)CN1CCN(CC(=O)O)CCN(CC(=O)*)CCN(CC(=O)O)CC1
metric: tissue uptake at 0.5 h (%ID/g)
# output: bare number, implied unit %ID/g

Using known records, supply tissue uptake at 0.5 h for CC[C@H](C)[C@H](NC(=O)[C@H](Cc1ccc(O)cc1)NC(=O)[C@@H]1CCCN1C(=O)[C@@H](NC(=O)[C@H](CCCCN)NC(=O)CN1CCN(CC(=O)O)CCN(CC(=O)O)CCN(CC(=O)O)CC1)[C@@H](C)CC)C(=O)N[C@@H](CC(C)C)C(=O)O [^68Ga-DOTA-NMN, metal not drawn] ({DOTA}-KIPYIL-OH; C-terminus assumed) 0.04

###

protocolDescription: in vivo
Set-up: species or system mice
conditionLabel: male, NU/J athymic nude, mouse, 3.81 MBq, total radioactivity, Biodistribution, Kidneys
Peptide text beside a SMILES is read from it. * marks the point of attachment. DOTA = O=C(O)CN1CCN(CC(=O)O)CCN(CC(=O)*)CCN(CC(=O)O)CC1
Reported values of tissue uptake at 0.5 h for individual entries

Using known records, supply tissue uptake at 0.5 h for CSCC[C@H](NC(=O)[C@H](CC(C)C)NC(=O)[C@H](Cc1c[nH]cn1)NC(=O)CNC(=O)[C@@H](NC(=O)[C@H](C)NC(=O)[C@H](Cc1c[nH]c2ccccc12)NC(=O)[C@H](CCC(N)=O)NC(=O)CCOCCOCCOCCOCCNC(=O)CN1CCN(CC(=O)O)CCN(CC(=O)O)CCN(CC(=O)O)CC1)C(C)C)C(N)=O [^68Ga-DOTA-PEG(4)-BBN(7-14), metal not drawn] 18 %ID/g

Using known records, supply tissue uptake at 0.5 h for CC[C@H](C)[C@H](NC(=O)[C@H](Cc1ccc(O)cc1)NC(=O)[C@@H]1CCCN1C(=O)[C@@H](NC(=O)[C@H](CCCCN)NC(=O)CN1CCN(CC(=O)O)CCN(CC(=O)O)CCN(CC(=O)O)CC1)[C@@H](C)CC)C(=O)N[C@@H](CC(C)C)C(=O)O [^68Ga-DOTA-NMN, metal not drawn] ({DOTA}-KIPYIL-OH; C-terminus assumed) ~60 %ID/g

###

protocolDescription: in vivo
Parameters: species or system mice
conditionLabel: male, NU/J athymic nude, mouse, 3.81 MBq, total radioactivity, Biodistribution, Bone
Peptide text beside a SMILES is read from it. * marks the point of attachment. DOTA = O=C(O)CN1CCN(CC(=O)O)CCN(CC(=O)*)CCN(CC(=O)O)CC1
metric: tissue uptake at 0.5 h (%ID/g)
# output: bare number, implied unit %ID/g

compound	metric	recordedMeasurement
CSCC[C@H](NC(=O)[C@H](Cc1ccccc1)NC(=O)[C@H](Cc1c[nH]cn1)NC(=O)CNC(=O)[C@@H](NC(=O)[C@H](C)NC(=O)[C@H](Cc1c[nH]c2ccccc12)NC(=O)[C@H](CC(C)C)NC(=O)[C@H](CC(N)=O)NC(=O)CNC(=O)CN1CCN(CC(=O)O)CCN(CC(=O)O)CCN(CC(=O)O)CC1)[C@@H](C)O)C(N)=O [^68Ga-DOTA-NMB, metal not drawn]	tissue uptake at 0.5 h	0.1
CC[C@H](C)[C@H](NC(=O)[C@H](Cc1ccc(O)cc1)NC(=O)[C@@H]1CCCN1C(=O)[C@@H](NC(=O)[C@H](CCCCN)NC(=O)CN1CCN(CC(=O)O)CCN(CC(=O)O)CCN(CC(=O)O)CC1)[C@@H](C)CC)C(=O)N[C@@H](CC(C)C)C(=O)O [^68Ga-DOTA-NMN, metal not drawn] ({DOTA}-KIPYIL-OH; C-terminus assumed)	tissue uptake at 0.5 h	0.16

Could you now consider this next compound?
Using known records, supply tissue uptake at 0.5 h for CSCC[C@H](NC(=O)[C@H](CC(C)C)NC(=O)[C@H](Cc1c[nH]cn1)NC(=O)CNC(=O)[C@@H](NC(=O)[C@H](C)NC(=O)[C@H](Cc1c[nH]c2ccccc12)NC(=O)[C@H](CCC(N)=O)NC(=O)CCOCCOCCOCCOCCNC(=O)CN1CCN(CC(=O)O)CCN(CC(=O)O)CCN(CC(=O)O)CC1)C(C)C)C(N)=O [^68Ga-DOTA-PEG(4)-BBN(7-14), metal not drawn] 0.75
